Each entry below carries its reported ADCC target lysis EC50.
- SYSTEM UNDER TEST: human CD38 (full length, on cells) (human, UniProt P28907 1-300)
- METHOD NOTES: cell-based or functional assay
# value in ng/mL; strip the unit string

| BINDER | ADCC target lysis EC50 (ng/mL) |
| --- | --- |
| aCD38-b-348-m3 (antibody, IgG1, V domains shown) VH: QLQLQESGPGLVKPSETLSLTCTVSGGSISSSDYYWGWIRQPPGKGLEWIGSIYYSGSTYYNPSLKSRVTISVDTSKNQFSLKLSSVTAADTAVYYCARGQYSSGWYAYPFDMWGQGTMVTVSS VL: EIVLTQSPGTLSLSPGERATLSCRASQSVRSSYLAWYQQKPGQAPRLLIYGASSRATGIPDRFSGSGSGTDFTLTISRLEPEDFAVYYCQQDANVYTFGGGTKVEIK | 4.3 |

### Prompt Query: ADCC target lysis EC50; subject: aCD38-b-348 (human IgG1) (antibody, V domains shown, Human IgG1) VH: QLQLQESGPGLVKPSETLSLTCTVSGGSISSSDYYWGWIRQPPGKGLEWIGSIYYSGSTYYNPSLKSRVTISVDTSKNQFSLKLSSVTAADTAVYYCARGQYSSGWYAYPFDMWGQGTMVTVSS VL: EIVLTQSPGTLSLSPGERATLSCRASQSVRSSYLAWYQQKPGQAPRLLIYGASSRATGIPDRFSGSGSGTDFTLTISRLEPEDFAVYYCQQDGNVYTFGGGTKVEIK
### Response 5.9
